- System: RCC4
- run description: XTT cell viability assay in RCC4 cells (VHL-deficient renal carcinoma)
- Type: cell-based
- test conditions: Homo sapiens, 96 h, four days drug exposure
endpoint: IC50

>>> print(df.to_string())
                              smiles_record  endpoint  reported
0  Cc1oc(-c2ccc(C(=O)NCc3cccnc3)cc2)nc1CS(=O)(=O)C1CCNCC1      IC50   > 20 nM
1  Cc1oc(-c2ccc(C(=O)NCc3cccnc3)cc2)nc1CS(=O)(=O)C1CCN(C2CCCCC2)CC1      IC50    < 1 nM
2  Cc1oc(-c2ccc(C(=O)NCc3cccnc3)cc2)nc1CS(=O)(=O)[C@H]1CC[C@H](N)CC1      IC50   > 20 nM
3  Cc1oc(-c2ccc(C(=O)NCc3cccnc3)cc2)nc1CS(=O)(=O)[C@@H]1CC[C@H](N)C1      IC50   > 20 nM

Could you share which IC50 value was measured for Cc1oc(-c2ccc(C(=O)NCc3cccnc3)cc2)nc1CS(=O)(=O)C1CCN(CC(C)C)CC1 ? < 1 nM

Attribution: patent US9085570B2
